Quick list: inhibition at 1 µM per entry.
Target or test system: human mTOR (Homo sapiens (Human), UniProt P42345)
Sequence (P42345 1360-2549): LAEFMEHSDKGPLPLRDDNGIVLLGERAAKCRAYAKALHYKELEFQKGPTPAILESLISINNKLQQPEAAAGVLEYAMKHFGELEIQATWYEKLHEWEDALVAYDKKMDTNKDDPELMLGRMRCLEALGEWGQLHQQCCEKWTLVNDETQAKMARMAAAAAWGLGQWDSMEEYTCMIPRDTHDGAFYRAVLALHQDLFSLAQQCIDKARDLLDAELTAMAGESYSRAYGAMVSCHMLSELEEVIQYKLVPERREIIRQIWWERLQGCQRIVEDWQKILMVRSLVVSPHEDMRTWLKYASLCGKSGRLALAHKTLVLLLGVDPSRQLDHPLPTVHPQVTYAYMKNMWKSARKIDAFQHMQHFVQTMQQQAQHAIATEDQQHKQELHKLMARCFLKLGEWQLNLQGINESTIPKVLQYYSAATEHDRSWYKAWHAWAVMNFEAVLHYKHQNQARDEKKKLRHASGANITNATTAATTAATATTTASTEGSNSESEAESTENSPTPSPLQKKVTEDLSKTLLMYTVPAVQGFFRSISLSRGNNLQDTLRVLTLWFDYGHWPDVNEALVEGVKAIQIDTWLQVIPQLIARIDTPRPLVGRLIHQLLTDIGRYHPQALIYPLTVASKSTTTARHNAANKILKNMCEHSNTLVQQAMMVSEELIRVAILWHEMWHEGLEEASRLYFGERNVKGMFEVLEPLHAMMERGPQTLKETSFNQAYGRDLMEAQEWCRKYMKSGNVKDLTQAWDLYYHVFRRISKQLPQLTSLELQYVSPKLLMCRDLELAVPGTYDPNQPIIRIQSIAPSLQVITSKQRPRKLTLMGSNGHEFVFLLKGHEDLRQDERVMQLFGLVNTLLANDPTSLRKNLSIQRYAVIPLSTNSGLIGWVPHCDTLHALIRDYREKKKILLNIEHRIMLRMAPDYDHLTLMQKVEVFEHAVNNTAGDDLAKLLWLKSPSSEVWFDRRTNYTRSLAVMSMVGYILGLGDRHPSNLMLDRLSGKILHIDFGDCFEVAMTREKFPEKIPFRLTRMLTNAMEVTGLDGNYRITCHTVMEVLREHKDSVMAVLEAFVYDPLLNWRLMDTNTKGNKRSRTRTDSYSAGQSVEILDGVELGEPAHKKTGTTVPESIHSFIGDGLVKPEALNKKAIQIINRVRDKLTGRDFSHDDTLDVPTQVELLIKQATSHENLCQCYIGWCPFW
Test: mTOR kinase assay (TR-FRET, for comparative purposes)
Format: biochemical
Condition description: read-out: mTOR % inhibition @ 1 μM, 1 μM test compound, 40 μM ATP, mean values
Where a name gives a salt, the structure may show the parent alone.
Just the number in %, nothing appended.

In the examples that follow, each entry is paired with its recorded inhibition at 1 µM.
Compound | Target or test system | Measured property | Readout value
COc1cc(C)cc2cc(-c3cc(COCCN4CCOC4=O)n4ncnc(N)c34)sc12 | human mTOR (Homo sapiens (Human), UniProt P42345) | inhibition at 1 µM | 28
COc1cc(C)cc2cc(-c3cc(CN4CC[C@](C)(N)C4)n4ncnc(N)c34)sc12 [Example 5, trihydrochloride] | human mTOR (Homo sapiens (Human), UniProt P42345) | inhibition at 1 µM | 18.8
COc1cc(C)cc2cc(-c3cc(CN4CC(O)C(NCCO)C4)n4ncnc(N)c34)sc12 (stereo not shown) | human mTOR (Homo sapiens (Human), UniProt P42345) | inhibition at 1 µM | 37.6
COc1cc(C)cc2cc(-c3cc(CN4CCCC(O)C4)n4ncnc(N)c34)sc12 (stereo not shown) | human mTOR (Homo sapiens (Human), UniProt P42345) | inhibition at 1 µM | 27.9
COc1cc(C)cc2cc(-c3cc(CN4CCC5CN(C)CC54)n4ncnc(N)c34)sc12 (stereo not shown) | human mTOR (Homo sapiens (Human), UniProt P42345) | inhibition at 1 µM | 17.3

Please turn your attention to the following entry.
Qu. What does the record list as inhibition at 1 µM for COc1cc(C)cc2cc(-c3cc(CN4CCC(O)CC4)n4ncnc(N)c34)sc12 ?
Ans. 29.5

---

Target or test system: human FGFR-3 (Homo sapiens (Human), UniProt P22607)
Sequence (P22607 397-806): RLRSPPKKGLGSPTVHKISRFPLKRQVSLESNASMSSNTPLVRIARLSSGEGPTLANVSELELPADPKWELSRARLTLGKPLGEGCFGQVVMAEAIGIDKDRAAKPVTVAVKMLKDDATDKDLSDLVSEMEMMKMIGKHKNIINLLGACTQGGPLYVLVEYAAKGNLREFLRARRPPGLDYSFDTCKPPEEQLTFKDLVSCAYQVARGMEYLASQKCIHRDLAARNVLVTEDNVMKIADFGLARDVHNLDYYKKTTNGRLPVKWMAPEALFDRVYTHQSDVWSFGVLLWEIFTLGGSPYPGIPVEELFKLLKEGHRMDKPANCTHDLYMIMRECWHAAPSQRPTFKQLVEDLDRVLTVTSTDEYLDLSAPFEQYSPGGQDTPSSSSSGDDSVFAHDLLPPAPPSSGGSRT
Where a name gives a salt, the structure may show the parent alone.
The following compounds are shown together with reported pIC50 values.
The scale used: pIC50 is minus the common logarithm of the concentration in molar units.

# example entries with known answers
Compound | pIC50
COc1cc(C)cc2cc(-c3cc(C(=O)N4CCNCC4)n4ncnc(N)c34)sc12 [Example 99, dihydrochloride] | 7.18
COc1cc(C)cc2cc(-c3cc(C(=O)N4CCC[C@@H](N)C4)n4ncnc(N)c34)sc12 | 7.84
COc1cc(C)cc2cc(-c3cc(CNCCC4CCCN4C)n4ncnc(N)c34)sc12 (stereo not shown) | 7.31

Qu. Requested read-out: pIC50. Entry: COc1cc(C)cc2cc(-c3cc(CN(C)C4CCS(=O)(=O)C4)n4ncnc(N)c34)sc12 (stereo not shown)
Ans. 7.06

Qu. Recorded pIC50 of COc1cc(C)cc2cc(-c3cc(CNC4CCCC4O)n4ncnc(N)c34)sc12 (stereo not shown) , please.
Ans. 7.01

---

Target or test system: human mTOR (Homo sapiens (Human))
Test: mTOR kinase assay (TR-FRET, for comparative purposes)
Assay type: biochemical
Condition description: read-out: mTOR % inhibition @ 1 μM, 1 μM test compound, 40 μM ATP, mean values
Measured property: inhibition at 1 µM (%)
Number in %, nothing else.

Molecule | inhibition at 1 µM / %
COc1cc(C)cc2cc(-c3cc(CNCCN)n4ncnc(N)c34)sc12 | 41.3

Qu. Provide the documented inhibition at 1 µM with human mTOR (Homo sapiens (Human)) as the system for CCN(Cc1cc(-c2cc3cc(C)cc(OC)c3s2)c2c(N)ncnn12)C(C)CO (centres unmarked)
Ans. 20.2

Qu. What reported inhibition at 1 µM corresponds to COc1cc(C)cc2cc(-c3cc(CN[C@@H](C)C(N)=O)n4ncnc(N)c34)sc12 on human mTOR (Homo sapiens (Human))?
Ans. 28.2

Qu. Requested read-out inhibition at 1 µM, target or system human mTOR (Homo sapiens (Human)), entry COc1cc(C)cc2cc(-c3cc(CN4CCN(C(=O)C5CC5)CC4)n4ncnc(N)c34)sc12
Ans. 47.2

Qu. Missing value: inhibition at 1 µM, human mTOR (Homo sapiens (Human)), entry COc1cc(C)cc2cc(-c3cc(C(=O)N4CCC[C@@H](N)C4)n4ncnc(N)c34)sc12 . Fill in?
Ans. 17.9

Qu. What reported inhibition at 1 µM corresponds to COc1cc(C)cc2cc(-c3cc(C(=O)N4CCNC(C(N)=O)C4)n4ncnc(N)c34)sc12 (centres unmarked) on human mTOR (Homo sapiens (Human))?
Ans. 12.8

Qu. human mTOR (Homo sapiens (Human)) / inhibition at 1 µM / COc1cc(C)cc2cc(-c3cc(CN4CCNC(C(=O)N(C)C)C4)n4ncnc(N)c34)sc12 (centres unmarked) : value?
Ans. 34.3

Qu. Which measured inhibition at 1 µM belongs to COc1cc(C)cc2cc(-c3cc(COC[C@H](C)N)n4ncnc(N)c34)sc12 , tested on human mTOR (Homo sapiens (Human))?
Ans. 1.1

Reference for the values: patent US9475815B2
